Consider the following compounds and their measured IC50 readings.
target: Prostaglandin G/H synthase 2 (Mus musculus, UniProt Q05769); assay: Inhibition of mouse COX2 using [1-14C]AA as substrate preincubated for 20 mins followed by substrate addition and measured for 30 sec by thin layer chromatography analysis
Sequence (Q05769 whole entry): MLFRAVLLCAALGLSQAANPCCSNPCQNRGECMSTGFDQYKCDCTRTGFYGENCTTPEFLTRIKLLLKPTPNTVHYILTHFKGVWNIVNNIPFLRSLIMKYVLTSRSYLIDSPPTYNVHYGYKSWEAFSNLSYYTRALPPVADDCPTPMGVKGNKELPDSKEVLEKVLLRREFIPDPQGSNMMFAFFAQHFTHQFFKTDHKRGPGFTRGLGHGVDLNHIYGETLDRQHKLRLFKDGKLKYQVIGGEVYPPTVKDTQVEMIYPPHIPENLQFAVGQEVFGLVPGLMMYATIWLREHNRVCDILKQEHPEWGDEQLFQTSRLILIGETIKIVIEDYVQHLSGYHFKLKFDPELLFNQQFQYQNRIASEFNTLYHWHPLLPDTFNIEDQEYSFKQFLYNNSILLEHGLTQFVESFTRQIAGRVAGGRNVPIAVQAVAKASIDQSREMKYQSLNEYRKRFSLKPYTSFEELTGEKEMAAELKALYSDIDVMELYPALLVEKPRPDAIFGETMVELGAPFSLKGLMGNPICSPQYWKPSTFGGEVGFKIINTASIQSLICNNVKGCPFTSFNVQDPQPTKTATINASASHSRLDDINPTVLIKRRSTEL

compound_structure_string=COc1ccc2c(c1)c1c(n2Cc2ccc(Cl)cc2)C(C)=NCC1 system_under_test="Prostaglandin G/H synthase 2 (Mus musculus, UniProt Q05769)" data_value="2.1 µM"
compound_structure_string=COc1cccc2[nH]c3c(c12)CCN=C3C system_under_test="Prostaglandin G/H synthase 2 (Mus musculus, UniProt Q05769)" data_value="> 4 µM"

Input: Which measured IC50 belongs to "COc1ccc2[nH]c3c(c2c1)CCN=C3C" , tested on Prostaglandin G/H synthase 2 (Mus musculus, UniProt Q05769)?
Output: > 4 µM
